From: patent US7074789B2

Listing of entries alongside the reported pIC50.
# experimental.system: Itk (Homo sapiens, UniProt Q08881)
# Construct: Kinases are expressed as either kinase domains or full length constructs; made in house
# Sequence (Q08881 1-620): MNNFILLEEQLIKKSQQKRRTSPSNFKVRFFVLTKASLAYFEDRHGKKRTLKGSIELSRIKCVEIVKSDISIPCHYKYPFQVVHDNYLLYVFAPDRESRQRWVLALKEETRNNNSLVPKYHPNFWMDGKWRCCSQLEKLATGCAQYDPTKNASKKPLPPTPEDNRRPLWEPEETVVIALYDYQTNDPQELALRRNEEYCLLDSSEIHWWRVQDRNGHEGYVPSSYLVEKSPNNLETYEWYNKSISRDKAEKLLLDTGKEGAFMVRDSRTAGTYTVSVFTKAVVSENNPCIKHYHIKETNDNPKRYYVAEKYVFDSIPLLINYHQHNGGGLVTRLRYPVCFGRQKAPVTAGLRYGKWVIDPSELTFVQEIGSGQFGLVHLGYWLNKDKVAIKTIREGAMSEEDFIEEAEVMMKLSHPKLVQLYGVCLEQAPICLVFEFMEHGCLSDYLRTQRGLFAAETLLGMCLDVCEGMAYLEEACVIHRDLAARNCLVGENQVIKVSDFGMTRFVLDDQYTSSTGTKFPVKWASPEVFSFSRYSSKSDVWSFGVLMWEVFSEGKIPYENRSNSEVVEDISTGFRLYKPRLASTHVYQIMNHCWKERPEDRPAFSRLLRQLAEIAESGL
# protocol: Kinase inhibition assay (33P transfer), Itk
# Format: biochemical
# experimental.context: read-out: Itk-1
# Procedure: The inhibitor compounds described herein are screened in the following manner. […] Kinases are expressed as either kinase domains or full length constructs fused to glutathione S-transferase (GST) or polyHistidine tagged fusion proteins in either E. colior Baculovirus-High Five expression systems. […] Kinase activity and inhibition are measured essentially by established protocols (Braunwalder et al., 1996). […]
pIC50: −log10 of the molar value.

Sample records with pIC50:
CC(C)(C)c1ccc(Nc2ncnc(-n3c(N)nc4ccccc43)n2)cc1 :: 5.01 to 5.18
COc1cc(Nc2ncnc(-n3c(NCc4ncccc4C)nc4ccccc43)n2)cc(OC)c1OC :: < 5.04
O=c1[nH]c2ccccc2n1-c1ncnc(Nc2ccncc2)n1 :: < 4.83
CCc1cccc(Nc2ncnc(-n3c(N)nc4ccccc43)n2)c1 :: 5.14 to 5.92
COc1cccc(Nc2ncnc(-n3c(N)nc4ccccc43)n2)c1 :: 5.14 to 5.92

Entry "COc1cc(Nc2ncnc(Nc3cccc(C(C)=O)c3)n2)cc(OC)c1OC" — recorded pIC50 = < 4.94

Entry "CCN(CC)CCNc1ncnc(N(C)c2cccc(Cl)c2)n1" — recorded pIC50 = < 4.87

Entry "COc1cc(Nc2ncnc(-n3c(NCc4ccc(Cl)cc4)nc4ccccc43)n2)cc(OC)c1OC" — recorded pIC50 = < 5.06

Entry "COC(=O)c1cc(OC)c(OC)cc1Nc1ncnc(-n2c(N)nc3ccccc32)n1" — recorded pIC50 = < 4.97

* * *

# experimental.system: Kdr (Homo sapiens)
# Construct: Kinases are expressed as either kinase domains or full length constructs; made in house
# Sequence (P35968 20-1356, species assumed): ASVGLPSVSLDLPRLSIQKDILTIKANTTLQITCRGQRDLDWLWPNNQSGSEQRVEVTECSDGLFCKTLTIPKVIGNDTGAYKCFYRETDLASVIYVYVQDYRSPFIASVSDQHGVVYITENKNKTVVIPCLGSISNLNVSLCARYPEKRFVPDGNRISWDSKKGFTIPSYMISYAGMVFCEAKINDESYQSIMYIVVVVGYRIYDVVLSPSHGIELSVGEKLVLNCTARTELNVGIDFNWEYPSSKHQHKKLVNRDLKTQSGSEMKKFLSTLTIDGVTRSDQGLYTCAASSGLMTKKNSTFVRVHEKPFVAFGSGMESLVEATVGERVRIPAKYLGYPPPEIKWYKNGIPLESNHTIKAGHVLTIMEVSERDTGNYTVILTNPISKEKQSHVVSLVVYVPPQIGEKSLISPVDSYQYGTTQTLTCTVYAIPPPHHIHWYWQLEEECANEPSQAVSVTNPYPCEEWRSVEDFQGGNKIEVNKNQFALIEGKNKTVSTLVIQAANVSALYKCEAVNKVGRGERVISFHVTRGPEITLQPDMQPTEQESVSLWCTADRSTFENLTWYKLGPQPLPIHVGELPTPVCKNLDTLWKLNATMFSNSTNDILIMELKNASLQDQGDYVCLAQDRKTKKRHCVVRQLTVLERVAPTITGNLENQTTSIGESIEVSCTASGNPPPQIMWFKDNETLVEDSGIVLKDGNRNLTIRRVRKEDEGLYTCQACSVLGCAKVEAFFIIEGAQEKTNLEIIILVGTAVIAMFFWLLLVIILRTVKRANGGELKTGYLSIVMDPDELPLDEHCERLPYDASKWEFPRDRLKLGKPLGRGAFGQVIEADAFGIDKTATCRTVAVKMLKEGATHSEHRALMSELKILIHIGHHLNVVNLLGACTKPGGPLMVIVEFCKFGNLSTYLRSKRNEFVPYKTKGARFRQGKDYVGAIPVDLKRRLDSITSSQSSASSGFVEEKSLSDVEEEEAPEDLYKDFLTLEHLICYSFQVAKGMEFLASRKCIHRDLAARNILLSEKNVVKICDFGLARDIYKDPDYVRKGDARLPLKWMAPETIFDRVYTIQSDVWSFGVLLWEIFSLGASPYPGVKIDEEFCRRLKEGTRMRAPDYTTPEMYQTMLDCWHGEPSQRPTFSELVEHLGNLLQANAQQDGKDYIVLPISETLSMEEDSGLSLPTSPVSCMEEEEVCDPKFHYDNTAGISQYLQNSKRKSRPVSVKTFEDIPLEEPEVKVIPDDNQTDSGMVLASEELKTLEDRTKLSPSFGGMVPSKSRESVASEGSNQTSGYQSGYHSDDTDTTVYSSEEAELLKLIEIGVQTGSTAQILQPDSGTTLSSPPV
# protocol: Kinase inhibition assay (33P transfer), Kdr
# Assay type: biochemical
# experimental.context: Table 3, class symbols; read-out: KDR-1
quantity.kind: IC50

Sample records with IC50:
COc1ccc(Nc2ncnc(NCc3cccc(Cl)c3)n2)cc1OC :: > 12.1 µM
COC(=O)c1ccc(-c2cc(Nc3ncnc(Nc4cccc(S(=O)(=O)O)c4)n3)[nH]n2)cc1 :: 0.856 to 5.13 µM
COc1ccc(Nc2ncnc(Nc3ccc(F)c(F)c3)n2)cc1OC :: 6.68 to 9.74 µM
Brc1cccc(Nc2ncnc(Nc3cccc(Cn4ccnn4)c3)n2)c1 :: 0.945 to 5.67 µM
CN(c1ccc2c(cnn2Cc2ccccc2)c1)c1ncnc(Nc2cccc(Br)c2)n1 :: > 9.25 µM

Entry "c1ccc(CNc2ncccc2-c2ncnc(Nc3ccc(N4CCOCC4)cc3)n2)cc1" — recorded IC50 = < 0.91 µM

Entry "COC(=O)c1ccc(-c2cc(Nc3ncnc(Nc4cccc(CCC(=O)O)c4)n3)[nH]n2)cc1" — recorded IC50 = 0.871 to 5.22 µM

Entry "COC(=O)c1cccc(Nc2ncnc(-n3c(NCc4ccc(OC)cc4)nc4ccccc43)n2)c1" — recorded IC50 = < 0.831 µM

* * *

# experimental.system: IGFR-1 (Homo sapiens, UniProt P08069)
# Construct: Kinases are expressed as either kinase domains or full length constructs; made in house
# Sequence (P08069 31-1367): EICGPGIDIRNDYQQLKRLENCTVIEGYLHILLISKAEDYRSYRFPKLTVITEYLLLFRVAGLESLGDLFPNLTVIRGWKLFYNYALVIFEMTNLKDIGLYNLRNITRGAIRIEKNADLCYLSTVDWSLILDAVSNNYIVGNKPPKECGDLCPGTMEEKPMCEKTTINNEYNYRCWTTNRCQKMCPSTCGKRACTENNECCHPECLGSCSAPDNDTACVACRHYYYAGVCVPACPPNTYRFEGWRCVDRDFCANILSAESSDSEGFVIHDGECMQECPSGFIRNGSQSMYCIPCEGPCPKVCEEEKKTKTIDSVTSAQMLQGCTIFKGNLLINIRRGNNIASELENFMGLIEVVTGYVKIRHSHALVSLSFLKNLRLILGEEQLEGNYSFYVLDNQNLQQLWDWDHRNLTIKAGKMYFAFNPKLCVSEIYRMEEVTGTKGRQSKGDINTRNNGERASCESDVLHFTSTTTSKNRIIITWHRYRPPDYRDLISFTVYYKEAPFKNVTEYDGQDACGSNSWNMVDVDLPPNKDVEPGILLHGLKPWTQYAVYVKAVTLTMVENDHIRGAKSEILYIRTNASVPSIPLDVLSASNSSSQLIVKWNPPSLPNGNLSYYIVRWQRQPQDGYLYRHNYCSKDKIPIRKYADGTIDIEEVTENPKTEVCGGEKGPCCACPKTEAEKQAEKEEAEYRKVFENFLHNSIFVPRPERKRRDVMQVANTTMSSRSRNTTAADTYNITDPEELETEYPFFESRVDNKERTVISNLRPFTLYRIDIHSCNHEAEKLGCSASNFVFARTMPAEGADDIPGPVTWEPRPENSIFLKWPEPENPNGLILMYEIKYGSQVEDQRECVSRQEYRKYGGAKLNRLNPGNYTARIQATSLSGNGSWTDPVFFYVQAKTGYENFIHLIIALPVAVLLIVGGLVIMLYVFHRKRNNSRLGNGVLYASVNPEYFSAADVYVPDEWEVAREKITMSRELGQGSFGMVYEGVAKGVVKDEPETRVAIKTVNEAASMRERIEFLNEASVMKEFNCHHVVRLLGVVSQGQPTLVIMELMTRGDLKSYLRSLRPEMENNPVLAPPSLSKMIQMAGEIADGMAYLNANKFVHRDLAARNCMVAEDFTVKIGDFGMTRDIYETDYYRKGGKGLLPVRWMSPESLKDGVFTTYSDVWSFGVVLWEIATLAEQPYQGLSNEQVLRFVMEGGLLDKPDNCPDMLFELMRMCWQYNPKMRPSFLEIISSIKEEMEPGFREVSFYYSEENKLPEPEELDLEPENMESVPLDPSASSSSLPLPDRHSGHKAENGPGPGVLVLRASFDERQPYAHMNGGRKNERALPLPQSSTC
# protocol: Kinase inhibition assay (33P transfer), IGFR-1
# Format: biochemical
# experimental.context: Table 2, kinase inhibition class
quantity.kind: IC50

COc1ccc(Nc2ncnc(N(CC(=O)OC(C)(C)C)c3ccc(Cl)cc3)n2)cc1OC :: > 9.54 µM
CC(C)(C)OC(=O)NCCCNc1ncnc(-c2ccccc2)n1 :: > 13.7 µM
COc1ccc2c(ccn2-c2ncnc(Nc3cc(OC)c(OC)c(OC)c3)n2)c1 :: 0.982 to 5.89 µM

// next entry
Entry "COc1cc(Nc2ncnc(-n3c(Nc4cccc(C(N)=O)c4)nc4ccccc43)n2)cc(OC)c1OC" — recorded IC50 = 4.68 to 6.83 µM

* * *

Listing of entries alongside the reported IC50.
# experimental.system: IGFR-1 (Homo sapiens)
# Construct: Kinases are expressed as either kinase domains or full length constructs; made in house
# protocol: Kinase inhibition assay (33P transfer), IGFR-1
# Type: biochemical
# experimental.context: Table 2, kinase inhibition class

COc1cc(Nc2ncnc(Nc3cc(C)[nH]n3)n2)cc(OC)c1OC [Compound 88] :: 1.12 to 6.72 µM
COc1cc(Nc2ncnc(-c3cccs3)n2)cc(OC)c1OC [Compound 217] :: > 13.1 µM
COc1cc(Nc2ncnc(N3CCc4ccc([N+](=O)[O-])cc43)n2)cc(OC)c1OC [Compound 191] :: > 10.6 µM
COc1cc(NC(=O)Nc2ncnc(Nc3cc(OC)c(OC)c(OC)c3)n2)cc(OC)c1 [Compound 22] :: > 9.86 µM
O=c1[nH]c2ccccc2n1-c1ncnc(Nc2ccc(-c3cnco3)cc2)n1 [Compound 379] :: > 12.1 µM
COc1ccc(Nc2ncnc(N(C/C=C/c3ccccc3)c3ccc(Cl)cc3)n2)cc1OC [Compound 974] :: > 9.49 µM

Recorded IC50 for COc1ccc(Nc2ncnc(Nc3cccc(C)c3)n2)cc1OC [Compound 108] on IGFR-1 (Homo sapiens) was 7.11 to 10.4 µM

Recorded IC50 for CC(C)(C)OC(=O)Nc1ccc(Nc2ncnc(Nc3ccc(OCc4ccccc4)cc3)n2)cc1 [Compound 162] on IGFR-1 (Homo sapiens) was > 9.29 µM

Recorded IC50 for COCCOc1ccc(Nc2ncnc(-c3ccccc3)n2)cc1 [Compound 155] on IGFR-1 (Homo sapiens) was > 14 µM

* * *

Quick record of IC50 values for EPHB4 (Homo sapiens, UniProt P54760).

COc1cc(Nc2ncnc(Nc3cc(C(C)(C)C)[nH]n3)n2)cc(OC)c1OC :: 1 to 6.01 µM
COc1cc(Nc2ncnc(-c3cccc(Cl)c3)n2)cc(OC)c1OC :: > 12.1 µM
COc1ccc(Nc2ncnc(Nc3cc(OC)c(OC)c(OC)c3)n2)cc1O :: 1 to 6.01 µM
COc1cc(Nc2ncnc(Nc3ccc4c(c3)Cc3ccccc3-4)n2)cc(OC)c1OC :: 7.93 to 10.2 µM
COc1cc(Nc2ncnc(-n3c(N)nc4cc(C(F)(F)F)ccc43)n2)cc(OC)c1OC :: 0.867 to 5.2 µM
COc1cc(Nc2ncnc(Nc3cc(-c4ccc(Cl)cc4)n[nH]3)n2)cc(OC)c1OC :: 0.881 to 5.29 µM

// next entry
Entry "COc1cc(Nc2ncnc(N(CC(=O)OC(C)(C)C)c3ccc4c(c3)OCO4)n2)cc(OC)c1OC" — recorded IC50 = > 8.8 µM

* * *

# experimental.system: AKT (Homo sapiens)
# Construct: Kinases are expressed as either kinase domains or full length constructs; made in house
# Sequence (Q9Y243 whole entry, the tested form may be a part): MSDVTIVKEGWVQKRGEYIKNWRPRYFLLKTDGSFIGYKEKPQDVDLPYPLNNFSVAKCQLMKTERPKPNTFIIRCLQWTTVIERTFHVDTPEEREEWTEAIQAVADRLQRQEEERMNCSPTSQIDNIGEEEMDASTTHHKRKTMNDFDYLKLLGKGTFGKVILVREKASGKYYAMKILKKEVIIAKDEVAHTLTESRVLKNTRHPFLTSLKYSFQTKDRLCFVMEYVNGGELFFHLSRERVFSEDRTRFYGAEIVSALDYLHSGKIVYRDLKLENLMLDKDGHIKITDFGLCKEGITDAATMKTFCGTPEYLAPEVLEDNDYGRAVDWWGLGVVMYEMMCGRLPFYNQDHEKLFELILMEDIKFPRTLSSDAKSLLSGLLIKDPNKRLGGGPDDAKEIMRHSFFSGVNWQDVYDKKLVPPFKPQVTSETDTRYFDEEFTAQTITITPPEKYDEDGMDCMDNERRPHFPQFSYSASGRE
# protocol: Kinase inhibition assay (33P transfer), AKT
# Assay type: biochemical
# experimental.context: Table 2, kinase inhibition class; read-out: AKT3-1
quantity.kind: IC50

Sample records with IC50:
CN(c1cccc(Cl)c1)c1ncnc(Nc2ccc(Cl)c(Cl)c2)n1 :: > 11.8 µM
COc1cc(Nc2ncnc(Nc3cccc(CC(=O)O)c3)n2)cc(OC)c1OC :: > 10.9 µM
COc1ccc(CNc2nc3ccccc3n2-c2ncnc(Nc3cc(OC)c(OC)c(OC)c3)n2)cc1 :: > 8.76 µM

Entry "COc1ccccc1Nc1ncnc(-c2ccccc2)n1" — recorded IC50 = > 16.2 µM

Entry "COCCOc1cc(Nc2ncnc(Nc3ccc(C)c(O)c3)n2)ccc1OC" — recorded IC50 = > 11.3 µM

Entry "COc1cc(Nc2ncnc(-n3c(C)nc4ccccc43)n2)cc(OC)c1OC" — recorded IC50 = > 11.5 µM

Entry "NS(=O)(=O)c1ccc(CNc2ncnc(-n3c(=O)[nH]c4ccccc43)n2)cc1" — recorded IC50 = > 11.3 µM

Entry "COc1cc(Br)ccc1Nc1nc2ccccc2n1-c1ncnc(Nc2cc(OC)c(OC)c(OC)c2)n1" — recorded IC50 = > 7.78 µM

Entry "COc1cc(Nc2ncnc(-c3cccnc3Nc3cccc(C(N)=O)c3)n2)cc(OC)c1OC" — recorded IC50 = > 9.5 µM

Entry "O=c1[nH]c2ccccc2n1-c1ncnc(Nc2ccc(Cl)cc2Cl)n1" — recorded IC50 = > 12.1 µM

Entry "O=C(O)Cc1cccc(Nc2ncnc(Nc3cc(-c4ccco4)n[nH]3)n2)c1" — recorded IC50 = 9.27 to 11.9 µM
